# Test system: HCV type 1b replicon (Huh-7 luc/neo cells)
# PROTOCOL_SUMMARY: HCV replicon assay, stable transfection (Huh-Luc, luciferase)
# Assay type: cell-based
# CONDITION: Hepatitis C virus, Huh-7, 72 h, three days incubation, average of all tests
MEASURED_ATTRIBUTE: EC50 (pM)
One number for each entry, in pM.

Observe how each entry below is paired with its result.
COMPOUND	EC50 / pM
CC[C@@H](C)[C@H](NC(=O)OC)C(=O)N1CCC[C@H]1c1ncc(-c2ccc3cc(-c4ccc5nc([C@@H]6CCCN6C(=O)[C@@H](NC(=O)OC)[C@H](C)CC)[nH]c5c4)ccc3c2)[nH]1	3
CC[C@H](C)[C@H](NC(=O)OC)C(=O)N1CCC[C@H]1c1nc2ccc(-c3ccc4cc(-c5cnc([C@@H]6CCCN6C(=O)[C@@H](NC(=O)OC)C(C)C)[nH]5)ccc4c3)cc2[nH]1	2

Please find the next compound below.
[in] EC50 for COC(=O)NC(C(=O)N1CCC[C@H]1c1ncc(-c2ccc3cc(-c4ccc5nc([C@@H]6CCCN6C(=O)C(NC(=O)OC)C6CCOCC6)[nH]c5c4)ccc3c2)[nH]1)C1CCOCC1 (mixture of isomers) ?
[out] 80

====

I'd be grateful if you could share measured EC50 for these entries.
# Tested on: HCV genotype 1b replicon NS5A R30H
# PROTOCOL_SUMMARY: Transient HCV 1b replicon, NS5A mutant R30H
# Type: cell-based
# CONDITION: Hepatitis C virus, read-out: EC50 R30H
# Method: In a transient set-up, a Huh-7 lunet hepatoma cell line was transiently transfected with an autonomously replicating RNA encoding a bi-cistronic expression construct. […] Cells were plated in 384 well plates in the presence of test and control compounds, which were added in various concentrations. […] The inhibitory activity of the compound was monitored, enabling a dose-response curve for each test compound. […]
Numbers only, in nM.

CC[C@H](C)[C@H](NC(=O)OC)C(=O)N1CCC[C@H]1c1ncc(-c2ccc3cc(-c4ccc5[nH]c([C@@H]6CCCN6C(=O)[C@@H](NC(=O)OC)[C@@H](C)OC)nc5c4)ccc3c2)[nH]1 0.036
CC[C@H](C)[C@H](NC(=O)OC)C(=O)N1CCC[C@H]1c1ncc(-c2ccc3cc(-c4ccc5[nH]c([C@@H]6CCCN6C(=O)[C@@H](NC(=O)OC)C(C)C)nc5c4)ccc3c2)[nH]1 0.07
CC[C@H](C)[C@H](NC(=O)OC)C(=O)N1CCC[C@H]1c1nc2ccc(-c3ccc4cc(-c5cnc([C@@H]6CCCN6C(=O)[C@@H](NC(=O)OC)C(C)C)[nH]5)ccc4c3)cc2[nH]1 0.027
COC(=O)N[C@H](C(=O)N1CCC[C@H]1c1ncc(-c2ccc3cc(-c4ccc5nc([C@@H]6CCCN6C(=O)[C@@H](NC(=O)OC)[C@@H](C)OC)[nH]c5c4)ccc3c2)[nH]1)C(C)C 0.045

Please find the next compound below.
[in] EC50 for CC[C@H](C)[C@H](NC(=O)OC)C(=O)N1CCC[C@H]1c1ncc(-c2ccc3cc(-c4ccc5nc([C@@H]6CCCN6C(=O)[C@@H](NC(=O)OC)[C@@H](C)CC)[nH]c5c4)ccc3c2)[nH]1 ?
[out] 0.116

====

# PROTOCOL_SUMMARY: Counterscreen MT4-LTR-Luc
# Format: cell-based
# CONDITION: human
# Source text: Counterscreen cell lines included a Huh-7 hepatoma cell line containing a human cytomegalovirus major immediate-early promoter-Luc construct (Huh7-CMV-Luc) and an MT4 T-cell line containing a long terminal repeat-Luc reporter (MT4-LTR-Luc).
MEASURED_ATTRIBUTE: CC50 (µM)
Give bare numbers, in µM.

Observe how each entry below is paired with its result.
STRUCTURE	CC50 / µM
COC(=O)N[C@H](C(=O)N1CCC[C@H]1c1ncc(-c2ccc3cc(-c4ccc5nc([C@@H]6CCCN6C(=O)[C@@H](NC(=O)OC)C(C)C)[nH]c5c4)ccc3c2)[nH]1)C(C)C	5.82
CC[C@H](C)[C@H](NC(=O)OC)C(=O)N1CCC[C@@H]1c1ncc(-c2ccc3cc(-c4ccc5[nH]c([C@@H]6CCCN6C(=O)[C@@H](NC(=O)OC)[C@@H](C)OC)nc5c4)ccc3c2)[nH]1	9.14

Please find the next molecule below.
[in] CC50 for CC[C@H](C)[C@H](NC(=O)OC)C(=O)N1CCC[C@H]1c1nc2cc(-c3ccc4cc(-c5cnc([C@H]6CCCN6C(=O)[C@@H](NC(=O)OC)[C@@H](C)OC)[nH]5)ccc4c3)ccc2[nH]1 ?
[out] 9.41
